Attribution: PubChem BioAssay AID1250

ASSAY NOTES: inhibitors of Bluetongue virus cytopathic effect, confirmation, arbovirus, BSR cells (AID 1250)
DETAILS: BSR cells, Bluetongue virus CPE, ATP luminescence, 72 h; at 20 µM (top of the series)
Calls of active or inactive are those of the source.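 The calls were made as follows: active = inhibition of at least 30% at one or more tested concentrations; inactive = inhibition below 30% at every dose.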
OUTCOME MEASURE: CPE inhibition

>>> value_reported("CC(C)Oc1cccc(C(=O)NC(=S)Nc2ccccc2)c1")
"6.77% (inactive)"
>>> value_reported("O=C(O)c1ccccc1Sc1c([N+](=O)[O-])cc(C(F)(F)F)cc1[N+](=O)[O-]")
"9.2% (inactive)"
>>> value_reported("Cc1ccc(S(=O)(=O)N2CCN(c3ccnc4cc(Cl)ccc34)CC2)cc1C")
"10.9% (inactive)"
>>> value_reported("CCn1nc(C)c(NC(=O)Nc2cccc(Cl)c2Cl)c1C")
"2.62% (inactive)"
>>> value_reported("CCCc1c(OCCCCc2nn[nH]n2)ccc(C(C)=O)c1O")
"12.8% (inactive)"
>>> value_reported("COc1ccc(C(=O)NN/C(C)=C/C(=O)C(F)(F)C(F)(F)C(F)(F)F)cc1")
"-14.6% (inactive)"
>>> value_reported("COc1ccccc1-n1c(C)cc(/C=C2/C(=N)N3C(=NC2=O)SN=C3S(C)(=O)=O)c1C")
"18.1% (inactive)"
>>> value_reported("COc1ccc(CN(C(=O)c2oc3ccccc3c2C)C2CCS(=O)(=O)C2)cc1OC (centres undefined)")
"18.3% (inactive)"
>>> value_reported("O=S(=O)(Nc1ccc(-c2nnc(SCc3ccc(Cl)cc3)o2)cc1)c1ccccc1")
"7.09% (inactive)"
>>> value_reported("COc1ccccc1NC(=S)NCCSc1ccc(C)cc1")
"10.1% (inactive)"
>>> value_reported("O=C(CSc1nccc(=O)[nH]1)N1N=C2/C(=C/c3ccco3)CCCC2C1c1ccco1 (centres undefined)")
"21.5% (inactive)"
>>> value_reported("O=C(O)c1ccc(COc2ccc3ccccc3c2/C=C2/NC(=O)N(Cc3ccc(F)cc3)C2=O)cc1")
"7.43% (inactive)"
>>> value_reported("Cn1cc([N+](=O)[O-])c(C(=O)NCc2cc3cc(Cl)ccc3[nH]2)n1")
"9.85% (inactive)"
>>> value_reported("O=C(CSc1nnc(NC(=O)c2c(F)cccc2F)s1)Nc1ccc(F)cc1")
"3.41% (inactive)"
>>> value_reported("O=C(NC1CCN(Cc2ccccc2)CC1)c1cccc(S(=O)(=O)Nc2cc(C(F)(F)F)ccc2Cl)c1")
"21.7% (inactive)"
>>> value_reported("Cc1nc2c(C(=O)NCCC(C)C)c[nH]n2c(=O)c1Cl")
"9.83% (inactive)"
>>> value_reported("CC(=O)c1ccc(N2CCN(C(=O)c3cc(-c4cccnc4)nc4ccc(Br)cc34)CC2)cc1")
"0.41% (inactive)"
>>> value_reported("COc1ccc(-c2csc(NC(=O)Cc3cccc4ccccc34)c2C(=O)O)cc1")
"24.9% (inactive)"
>>> value_reported("CCOc1cccc2sc(NN)nc12")
"14.3% (inactive)"
>>> value_reported("Cc1nc(NS(=O)(=O)c2ccccc2C)c2c3c(sc2n1)CCC3")
"27.6% (inactive)"
>>> value_reported("COc1ccccc1NC(=O)CN1CCC(n2c(C)nc3cc(F)ccc32)CC1")
"23.7% (inactive)"
>>> value_reported("C/C(=N\\NC(=O)c1ccccc1)c1nc2ccccc2n1C")
"-15.5% (inactive)"
>>> value_reported("Cc1cccc(CSc2nnc(NC(=O)CSc3nnc(C)s3)s2)c1")
"17.3% (inactive)"
>>> value_reported("CC1=NN2C(=N)/C(=C\\c3ccc(SCc4ccccc4)o3)C(=O)N=C2S1")
"21.1% (inactive)"
>>> value_reported("Cc1[nH]c2ccccc2c1C1=CCNCC1")
"3.08% (inactive)"
>>> value_reported("O=C(COc1ccc(Cl)cc1)Nc1ncc([N+](=O)[O-])s1")
"25.3% (inactive)"
>>> value_reported("O=C1CC(=O)N(Cc2ccco2)C(=O)N1")
"2.11% (inactive)"
>>> value_reported("CSc1nc(C)c(CCO)c(=O)[nH]1")
"3.71% (inactive)"
>>> value_reported("O=C(O)c1c(NC(=O)c2cccc3ccccc23)sc2c1CCC2")
"0.01% (inactive)"
>>> value_reported("COc1ccc(F)cc1C(=O)C1CCCN(C(=O)CSc2ccccn2)C1 (centres undefined)")
"17.6% (inactive)"
>>> value_reported("CCCCCc1nnc(NC(=O)C2COc3ccccc3O2)s1 (centres undefined)")
"17.9% (inactive)"
>>> value_reported("N#CCCN(Cc1cccnc1)C(=S)Nc1ccc(OC(F)F)cc1")
"3.08% (inactive)"
>>> value_reported("COc1ccc(C(=O)Nc2sc3c(c2C(=O)O)CC(C)(C)OC3)cc1")
"27.2% (inactive)"
>>> value_reported("CCCC1=NN2C(=N)/C(=C\\c3cc(C)n(-c4cccc(C)c4)c3C)C(=O)N=C2S1")
"24% (inactive)"
>>> value_reported("COc1ccc2[nH]c(=O)c(CN(CCCN(C)C)C(=O)Nc3ccc(F)cc3)cc2c1")
"7.66% (inactive)"
>>> value_reported("O=c1oc(/C=C/c2ccccc2)nc2ccccc12")
"16.6% (inactive)"
>>> value_reported("Cc1ccccc1N=C1NC(=O)/C(=C/c2cccn2-c2cccc(C(=O)O)c2)S1")
"21.3% (inactive)"
>>> value_reported("O=C(Nc1nc2ccccc2s1)c1ccc(N2CCCCC2)c([N+](=O)[O-])c1")
"22.1% (inactive)"
>>> value_reported("O=C(O)c1cc(N/N=C2/CC(c3ccccc3)Oc3ccccc32)ccc1Cl (centres undefined)")
"16.6% (inactive)"
>>> value_reported("Cc1oc(-c2ccccc2Cl)nc1CSCC(=O)N1CCCC1")
"16.4% (inactive)"
>>> value_reported("O=C(O)c1cccc(NC(=S)NC(=O)c2ccc(-c3ccc(Cl)cc3)o2)c1")
"29.9% (inactive)"
>>> value_reported("CN(C(=O)c1coc(=O)c2ccccc12)c1ccc(Br)cc1")
"18.4% (inactive)"
>>> value_reported("c1ccc(CSc2ccc(-c3cccnc3)nn2)nc1")
"0.68% (inactive)"
>>> value_reported("Cc1ccc(S(=O)(=O)Oc2ccc(C)cc2/C=N/N=C2\\NC(=O)C(C)S2)cc1 (centres undefined)")
"25.2% (inactive)"

====

ASSAY NOTES: inhibitors of Bluetongue virus cytopathic effect, confirmation, arbovirus, BSR cells (AID 1250)
DETAILS: BSR cells, Bluetongue virus CPE, ATP luminescence, 72 h; at 20 µM (top of the series)
Entries and their CPE inhibition values follow.
OUTCOME MEASURE: CPE inhibition (%)

>>> value_reported("CCOC(=O)c1ccc(NC(=S)N2CCSC2c2c(F)cc(F)cc2F)cc1 (stereo not given)")
11.8
>>> value_reported("CCCCN(CC)C(=O)CSc1nc2c(sc(=S)n2-c2ccc(OCC)cc2)c(=O)[nH]1")
18.4
>>> value_reported("COc1cc(/C=C/C(=O)c2c(O)n(CCc3ccccc3)c(=O)[nH]c2=O)ccc1O")
13
>>> value_reported("O=C1N=c2ccccc2=C1c1sc(Nc2ccc(O)cc2)nc1O")
14.8
>>> value_reported("Cc1ccccc1OCCSCc1nc2ccccc2[nH]1")
24.9
>>> value_reported("COC(=O)Nc1ccc(S(=O)(=O)N2CCC(C(=O)N(C)C3CCCCC3)CC2)cc1")
4.71
>>> value_reported("C(=N\\Nc1nc(-c2ccccc2)cs1)/c1ccco1")
20.9
>>> value_reported("COc1cccc(-n2c(C)cc(/C=C3/C(=N)N4C(=NC3=O)SN=C4S(C)(=O)=O)c2C)c1")
19.6
>>> value_reported("Oc1ccccc1CN1CCCN(Cc2ccccc2O)C1")
2.17
>>> value_reported("Cc1ccc(C(CC(=O)O)Nc2nc(N3CCCCC3)nc(N3CCCCC3)n2)cc1 (stereo not given)")
9.28

====

ASSAY NOTES: inhibitors of Bluetongue virus cytopathic effect, confirmation, arbovirus, BSR cells (AID 1250)
DETAILS: BSR cells, Bluetongue virus CPE, ATP luminescence, 72 h; at 20 µM (top of the series)
Activity calls are given as the source filed them.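 The calls were made as follows: active = inhibition of at least 30% at one or more tested concentrations; inactive = inhibition below 30% at every dose.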
Entries and their CPE inhibition values follow.
OUTCOME MEASURE: CPE inhibition

>>> value_reported("O=C(c1coc(=O)c(Br)c1)N1CCCc2ccccc21")
"4.27% (inactive)"
>>> value_reported("CC1=Nc2ccccc2/C1=C/c1c(N)n2c(S(=O)(=O)C(C)C)nsc2nc1=O")
"19% (inactive)"
>>> value_reported("O=CNCC(=O)NCCc1ccc(Cl)cc1")
"1.49% (inactive)"
>>> value_reported("CC(C)S(=O)(=O)c1nsc2nc(=O)c(/C=C3\\C=Nc4ccccc43)c(N)n12")
"22% (inactive)"
>>> value_reported("N#Cc1c(C(F)(F)F)cc(-c2ccc(Cl)cc2)[nH]c1=O")
"25.9% (inactive)"
>>> value_reported("Cc1[nH]nc2c1-c1nc3ccccc3nc1C(C)(C)C2")
"15.7% (inactive)"
